Assay: Viability of myocytes C2C12 after 24 h incubation (resazurin-based reagent)
Conditions: mouse, C2C12 myocytes
assay-metric: viability at 24 h, 50 µM (%)

                                   molecule              assay_metric  unit_string  quantitative_readout
0  CN(CCOc1ccc(CC2SC(=O)NC2=O)cc1)c1ccccn1 (stereo not shown) [rosiglitazone, reference compound]  viability at 24 h, 50 µM            %                   120

###

System: adipocytes 3T3-L1
Assay: Scintillation proximity assay, transport of [14C]-deoxy-D-glucose into adipocytes 3T3-L1
Format: cell-based, mouse
Settings: 50 µM
assay-metric: Transport of [14C]-deoxy-D-glucose into 3T3-L1 adipocytes, % of control

In [3]: df
Out[3]:
                                   molecule            result
0  CC(CC(=S)Nc1ccccc1)=NC(CC(C)C)C(=O)[O][V](=[O])([Cl])[Cl] (stereo not shown) [VC070, [VOCl2(L3)]·0.5Et2O·3HCl]  159 % of control
1  Cc1occc(=O)c1[O-].Cc1occc(=O)c1[O-].[O]=[V+2] [BMOV, bis(maltolato)oxidovanadium(IV), reference compound]      low activity
2  O=S(=O)([O-])[O-].[O]=[V+2] [VOSO4, reference compound]      low activity

###

Molecular target: LAR (Homo sapiens)
Sequence (P10586 1352-1607 limits assumed): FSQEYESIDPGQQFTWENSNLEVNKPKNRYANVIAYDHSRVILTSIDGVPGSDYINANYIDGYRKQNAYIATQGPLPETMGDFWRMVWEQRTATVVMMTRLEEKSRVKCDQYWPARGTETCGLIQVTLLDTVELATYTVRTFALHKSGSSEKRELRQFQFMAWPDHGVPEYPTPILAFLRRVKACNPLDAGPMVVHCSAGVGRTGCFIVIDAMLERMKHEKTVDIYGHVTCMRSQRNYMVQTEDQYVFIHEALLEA
Assay: Inhibition of human recombinant tyrosine phosphatase LAR (DiFMUP fluorescence)
Format: biochemical
Conditions: 1 µM; control solvent only; SD did not exceed 6%
Procedure: To determine the ability of the tested compounds for inhibition tyrosine phosphatases, human recombinant proteins were used (Sigma-Aldrich). The reactions were performed in black opaque 384-well microplates (PerkinElmer, Waltham, MA, USA). […] Samples were incubated for 20 miN at 23 °C, and then the measurements of fluorescence intensity (excitation 355 and emission […]) were performed on a multifunctional plate reader POLARstar Omega (BMG Labtech, Ortenberg, Germany). […]
assay-metric: Inhibition of LAR, percentage of inhibition of the control

molecule	result
CC(CC(=S)Nc1ccccc1)=NC(Cc1ccccc1)C(=O)[O][V](=[O])([Cl])[Cl] (stereo not drawn) [VC059, [VOCl2(L2)]·0.5Et2O·1.5HCl]	71%
CC(CC(=S)Nc1ccccc1)=NC(CC(C)C)C(=O)[O][V](=[O])([Cl])[Cl] (stereo not drawn) [VC070, [VOCl2(L3)]·0.5Et2O·3HCl]	69%
O=C(NN=Cc1cc(Br)ccc1[O-])c1ccc([N+](=O)[O-])cc1.O=[N+]([O-])c1ccc(C([O-])=NN=Cc2cc(Br)ccc2[O-])cc1.[V+3] [VC068, [V(L13)(HL13)]]	33%

###

Test system: myocytes C2C12
Test: Scintillation proximity assay, transport of [14C]-deoxy-D-glucose into myocytes C2C12
Assay type: cell-based, mouse
Conditions: 50 µM; control solvent only
assay-metric: Transport of [14C]-deoxy-D-glucose into C2C12 myocytes, % of the control

In [3]: df
Out[3]:
                                   molecule                 result
0  O.O=C(NN=Cc1cc(Br)ccc1[O][V]1[O]C(c2ccccc2)=NN=Cc2cc(Br)ccc2[O]1)c1ccccc1 [VC032, [V(L8)(HL8)]⋅H2O]  266 ± 36 % of control
1  Cc1occc(=O)c1[O-].Cc1occc(=O)c1[O-].[O]=[V+2] [BMOV, bis(maltolato)oxidovanadium(IV), reference compound]       125 % of control
2  O=S(=O)([O-])[O-].[O]=[V+2] [VOSO4, reference compound]       110 % of control
3  CC(CC(=S)Nc1ccccc1)=NC(CC(C)C)C(=O)[O][V](=[O])([Cl])[Cl] (stereo not shown) [VC070, [VOCl2(L3)]·0.5Et2O·3HCl]  158 ± 10 % of control

Values compiled from paper PMC10892041.
